Sourced from patent US10294202B2

Test system: crabgrass, large
Test: Test C pre-/postemergence herbicide test
Format: in vivo, Digitaria sanguinalis
Settings: Postemergence; 125 g ai/ha; scale 0 to 100 (0 no effect, 100 complete control)
Catalogue of Plant response rating, Crabgrass, Large values
propertyLabel: Plant response rating, Crabgrass, Large

1) Cc1c(F)cccc1NC(=O)C1C(=O)NCC1c1ccc(F)c(F)c1 (racemic) :: 25
2) O=C1NCC(c2cc(F)c(F)cc2F)C1C(=O)Nc1cccc(F)c1F (stereo not shown) :: 40
3) CN1CC(c2ccc(F)c(F)c2)C(C(=O)Nc2cccc(F)c2F)C1=O (stereo not shown) :: 65
4) Cc1ccccc1NC(=O)C1C(=O)NCC1c1cccc(C(F)(F)F)c1 (racemic) :: 40
5) CN1CC(c2ccc(C(F)(F)F)cc2)C(C(=O)Nc2cccc(F)c2F)C1=O (stereo not shown) :: 75
6) O=C1NCC(c2ccc(C(F)(F)F)cc2)C1C(=O)Nc1cccc(F)c1F (stereo not shown) :: 65
7) O=C1NCC(c2ccc(F)c(F)c2)C1C(=O)Nc1ccc(F)c(F)c1F (stereo not shown) :: 60
